- measurement conditions: in n-butanol, 288.15 K
parameter measured: solubility (mole fraction)
Numbers only.

Request: Value lookup for solubility (mole fraction); key = CCCSc1nc(N[C@@H]2C[C@H]2c2ccc(F)c(F)c2)c2nnn([C@@H]3C[C@H](OCCO)[C@@H](O)[C@H]3O)c2n1
Result: 0.00278

====

- measurement conditions: in ethyl acetate, 283.15 K
parameter measured: solubility (mole fraction)
One number for each entry.

Request: So what's the measured solubility (mole fraction) for this one? CCCSc1nc(N[C@@H]2C[C@H]2c2ccc(F)c(F)c2)c2nnn([C@@H]3C[C@H](OCCO)[C@@H](O)[C@H]3O)c2n1
Result: 0.00399
